Quick reference for IC50 among some molecules
# Target or system: human PD-1 (Jurkat-PD-1 cells) / PE-labeled human PD-L1-Ig (Homo sapiens, UniProt Q15116)
# Construct: expressed in transfected cells; host or cells: Jurkat cell line over-expressing human PD-1
# Sequence (Q15116 25-288): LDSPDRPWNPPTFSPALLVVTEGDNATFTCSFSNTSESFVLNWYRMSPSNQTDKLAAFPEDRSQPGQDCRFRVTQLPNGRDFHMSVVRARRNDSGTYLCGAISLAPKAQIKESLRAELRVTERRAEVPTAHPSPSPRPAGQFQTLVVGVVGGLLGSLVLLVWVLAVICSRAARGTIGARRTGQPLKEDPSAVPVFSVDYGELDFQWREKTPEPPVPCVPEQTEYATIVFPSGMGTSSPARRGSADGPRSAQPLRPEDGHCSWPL
# Run description: Jurkat-PD-1 Cell Binding High-Content Screening Assay (CBA); Jurkat hPD1-PDL1 assay
# Particulars: Jurkat cell line over-expressing human PD-1; PE-labeled PD-L1-Ig 20 nM final; compound incubated 2 hours at 37° C.; read-out: Jurkat HPD1-PDL1 IC50
# Description: The ability of the compounds of formula (I) to bind to PD-1 was investigated using a Jurkat-PD-1 Cell Binding High-Content Screening Assay. Jurkat-PD-1 Cell Binding High-Content Screening Assay (CBA) Phycoerythrin (PE) was covalently linked to the Ig epitope tag of human PD-L1-Ig and fluorescently-labeled PD-L1-Ig was used for binding studies with a Jurkat cell line over-expressing human PD-1 (Jurkat-PD-1). […]
Positions of bridges follow the written chain, without caps; N, C: chain ends. Non-standard residues stand in square brackets, D forms with d. Residues, ends and D or L forms follow the SMILES beside them. ξ: configuration not given here. Bip = N[C@@H](Cc1ccc(-c2ccccc2)cc1)C(=O)O; NMeF = CN[C@@H](Cc1ccccc1)C(=O)O; ξW = NC(Cc1c[nH]c2ccccc12)C(=O)O; Phg = N[C@H](C(=O)O)c1ccccc1; NMeA = CN[C@@H](C)C(=O)O; Sar = CNCC(=O)O

Molecule	IC50 (nM)
CC(C)C[C@@H]1NC(=O)[C@H](CC(N)=O)NC(=O)CN(C)C(=O)[C@H](CCCNC(=N)N)NC(=O)[C@H](C(C)C)NC(=O)[C@H](Cc2ccc(-c3ccccc3)cc2)NC(=O)[C@H](C(C)C)NC(=O)C(Cc2c[nH]c3ccccc23)NC(=O)[C@H](CC(=O)O)NC(=O)[C@H](Cc2ccc(O)cc2)NC(=O)[C@H](Cc2ccccc2)NC(=O)CSC[C@@H](C(=O)NCC(N)=O)NC(=O)[C@H](CO)NC(=O)[C@H](C(C)C)NC1=O (some centres unmarked) [Example 1229] ({CH2CO}-FYD[ξW]V[Bip]VR[Sar]NLVSCG-NH2; thioether N-14)	440
CC(C)C[C@@H]1NC(=O)[C@H](CCCNC(=N)N)NC(=O)[C@H](Cc2ccccc2)N(C)C(=O)[C@H](C)N(C)C(=O)[C@H](CCCNC(=N)N)NC(=O)[C@H](Cc2ccc(-c3ccccc3)cc2)NC(=O)[C@H](c2ccccc2)NC(=O)[C@H](Cc2c[nH]c3ccccc23)NC(=O)[C@H](CC(=O)O)NC(=O)[C@H](Cc2ccc(O)cc2)NC(=O)[C@H](Cc2ccccc2)NC(=O)CSC[C@@H](C(=O)NCC(N)=O)NC(=O)[C@H](CO)NC(=O)[C@H](C(C)C)NC1=O [Example 1334] ({CH2CO}-FYDW[Phg][Bip]R[NMeA][NMeF]RLVSCG-NH2; thioether N-14)	430

---

# Target or system: human PD-1 (Jurkat-PD-1 cells) / PE-labeled human PD-L1-Ig (Homo sapiens, UniProt Q15116)
# Construct: expressed in transfected cells; host or cells: Jurkat cell line over-expressing human PD-1
# Run description: Jurkat-PD-1 Cell Binding High-Content Screening Assay (CBA); Jurkat hPD1-PDL1 assay
# Particulars: Jurkat cell line over-expressing human PD-1; PE-labeled PD-L1-Ig 20 nM final; compound incubated 2 hours at 37° C.; read-out: Jurkat HPD1-PDL1 IC50
pIC50: −log10 of the molar value. Starred links: 1 amine or outer side, 2 acyl side, 3 side chain; linkers in the order of their positions; H or OH if unused. Positions of bridges follow the written chain, without caps; N, C: chain ends. Non-standard residues stand in square brackets, D forms with d. Residues, ends and D or L forms follow the SMILES beside them. Bip = N[C@@H](Cc1ccc(-c2ccccc2)cc1)C(=O)O; Phe(4-NH2) = Nc1ccc(C[C@H](N)C(=O)O)cc1; X1 = O=C([C@H](Cc1ccn[nH]1)N[*:1])[*:2]; NMeF = CN[C@@H](Cc1ccccc1)C(=O)O; NMeA = CN[C@@H](C)C(=O)O; Dab = NCC[C@H](N)C(=O)O; Sar = CNCC(=O)O
Experimental readout: pIC50

Molecule	Experimental readout	Value reported
CC(C)C[C@@H]1NC(=O)[C@H](Cc2c[nH]c3ccccc23)NC(=O)[C@H](CC(=O)O)NC(=O)[C@H](Cc2ccc(O)cc2)NC(=O)[C@H](Cc2ccccc2)NC(=O)CSC[C@@H](C(=O)N[C@@H](C)C(N)=O)NC(=O)[C@H](CO)NC(=O)[C@H](C(C)C)NC(=O)[C@H](CC(C)C)NC(=O)[C@H](CCC(N)=O)NC(=O)[C@H]2CCCN2C(=O)[C@H](C)N(C)C(=O)[C@H](C(C)C)NC(=O)[C@H](Cc2ccc(-c3ccccc3)cc2)NC1=O [Example 1037] ({CH2CO}-FYDWL[Bip]V[NMeA][dP]QLVSCA-NH2; thioether N-14)	pIC50	7.15
CC(C)C[C@@H]1NC(=O)[C@H](Cc2c[nH]c3ccccc23)NC(=O)[C@H](CC(=O)O)NC(=O)[C@H](Cc2ccc(N)cc2)NC(=O)[C@H](Cc2ccccc2)NC(=O)CSC[C@@H](C(=O)N[C@@H](C)C(N)=O)NC(=O)[C@H](CO)NC(=O)[C@H](C(C)C)NC(=O)[C@H](CC(C)C)NC(=O)[C@H](CC(N)=O)NC(=O)CN(C)C(=O)[C@H](C)N(C)C(=O)[C@H](C(C)C)NC(=O)[C@H](Cc2ccc(-c3ccccc3)cc2)NC1=O [Example 1076] ({CH2CO}-F[Phe(4-NH2)]DWL[Bip]V[NMeA][Sar]NLVSCA-NH2; thioether N-14)	pIC50	6.68
CC(C)C[C@@H]1NC(=O)[C@H](Cc2c[nH]c3ccccc23)NC(=O)[C@H](CC(=O)O)NC(=O)[C@H](Cc2ccc(O)cc2)NC(=O)[C@H](Cc2ccn[nH]2)NC(=O)CSC[C@@H](C(=O)N[C@@H](C)C(N)=O)NC(=O)[C@H](CO)NC(=O)[C@H](C(C)C)NC(=O)[C@H](CC(C)C)NC(=O)[C@H](CC(N)=O)NC(=O)CN(C)C(=O)[C@H](C)N(C)C(=O)[C@H](C(C)C)NC(=O)[C@H](Cc2ccc(-c3ccccc3)cc2)NC1=O [Example 1094] ({CH2CO}-[X1]YDWL[Bip]V[NMeA][Sar]NLVSCA-NH2; thioether N-14)	pIC50	6.55
CC(C)C[C@@H]1NC(=O)[C@H](CCN)NC(=O)[C@H](Cc2ccccc2)N(C)C(=O)[C@H](C)N(C)C(=O)[C@H](CCCNC(=N)N)NC(=O)[C@H](Cc2ccc(-c3ccccc3)cc2)NC(=O)[C@H](C(C)C)NC(=O)[C@H](Cc2c[nH]c3ccccc23)NC(=O)[C@H](CC(=O)O)NC(=O)[C@H](Cc2ccc(O)cc2)NC(=O)[C@H](Cc2cnc[nH]2)NC(=O)CSC[C@@H](C(=O)N[C@@H](C)C(N)=O)NC(=O)[C@H](CO)NC(=O)[C@H](C(C)C)NC1=O [Example 1316] ({CH2CO}-HYDWV[Bip]R[NMeA][NMeF][Dab]LVSCA-NH2; thioether N-14)	pIC50	7.10

Hello, the source for this data is patent US20240360178A1, in case you need it.
